molecular target: HCV NS3/4A protease genotype 1b (Hepatitis C virus genotype 1b); assay: HCV NS3/4A protease time-resolved fluorescence (TRF) assay, Ki against genotype 1b; format: biochemical; conditions: IC50 [gt-1b], NS3/4A protease TRF assay, genotype 1b enzyme 0.2 nM; K+ salt
property-name: IC50

>  <molecule>
COc1ccc2nc(C)c3c(c2n1)[C@H](F)C[C@]1(C[C@H]2C(=O)N[C@]4(C(=O)NS(=O)(=O)C5(C)CC5)C[C@H]4/C=C\CCCCC[C@H](NC(=O)OC(C)(C)C(F)(F)F)C(=O)N2C1)O3

>  <target-entity>
HCV NS3/4A protease genotype 1b (Hepatitis C virus genotype 1b)

>  <result>
0.021 nM

$$$$
>  <molecule>
CCCOC(=O)N[C@H]1CCCCC/C=C\[C@@H]2C[C@@]2(C(=O)NS(=O)(=O)C2(C)CC2)NC(=O)[C@@H]2C[C@]3(CCc4c(c(C5CC5)nc5ccc(OC)cc45)O3)CN2C1=O

>  <target-entity>
HCV NS3/4A protease genotype 1b (Hepatitis C virus genotype 1b)

>  <result>
0.016 nM

$$$$
>  <molecule>
CC[C@@H](C)OC(=O)N[C@H]1CCCCC/C=C\[C@@H]2C[C@@]2(C(=O)NS(=O)(=O)C2(C)CC2)NC(=O)[C@@H]2C[C@]3(CCc4c(c(C(F)F)nc5ccc(OC)cc45)O3)CN2C1=O

>  <target-entity>
HCV NS3/4A protease genotype 1b (Hepatitis C virus genotype 1b)

>  <result>
0.014 nM

$$$$
>  <molecule>
COc1ccc2nc(C)c3c(c2c1)CC[C@]1(C[C@H]2C(=O)N[C@]4(C(=O)NS(=O)(=O)C5(C)CC5)C[C@H]4/C=C\CCCCC[C@H](NC(=O)OC(C(C)C)C(F)(F)F)C(=O)N2C1)O3 (stereo partly drawn) [Example 408]

>  <target-entity>
HCV NS3/4A protease genotype 1b (Hepatitis C virus genotype 1b)

>  <result>
0.023 nM

$$$$
>  <molecule>
COc1ccc2nc(C3CC3)c3c(c2c1)[C@H](F)C[C@]1(C[C@H]2C(=O)N[C@]4(C(=O)NS(=O)(=O)C5(C)CC5)C[C@H]4/C=C\CCCCC[C@H](NC(=O)OCC(C)C)C(=O)N2C1)O3

>  <target-entity>
HCV NS3/4A protease genotype 1b (Hepatitis C virus genotype 1b)

>  <result>
0.024 nM

$$$$
>  <molecule>
COc1ccc2nc(C(F)(F)F)c3c(c2c1)CC[C@]1(C[C@H]2C(=O)N[C@]4(C(=O)NS(=O)(=O)C5(C)CC5)C[C@H]4/C=C\CCCCC[C@H](NC(=O)OCC4(C)CC4)C(=O)N2C1)O3

>  <target-entity>
HCV NS3/4A protease genotype 1b (Hepatitis C virus genotype 1b)

>  <result>
0.009 nM

$$$$
>  <molecule>
COCCCOc1ccc2nc(C(F)(F)F)c3c(c2c1)CC[C@]1(C[C@H]2C(=O)N[C@]4(C(=O)NS(=O)(=O)C5(C)CC5)C[C@H]4/C=C\CCCCC[C@H](NC(=O)OC4(C)CCC4)C(=O)N2C1)O3 [Example 522]

>  <target-entity>
HCV NS3/4A protease genotype 1b (Hepatitis C virus genotype 1b)

>  <result>
0.005 nM

$$$$
>  <molecule>
COc1ccc2nc(C(F)F)c3c(c2c1)CC[C@]1(C[C@H]2C(=O)N[C@]4(C(=O)NS(=O)(=O)C5(C)CC5)C[C@H]4/C=C\CCCCC[C@H](NC(=O)OCC(C)C)C(=O)N2C1)O3

>  <target-entity>
HCV NS3/4A protease genotype 1b (Hepatitis C virus genotype 1b)

>  <result>
0.016 nM

$$$$
>  <molecule>
[2H]C([2H])(F)Oc1ccc2nc(C)c3c(c2c1)[C@H](F)C[C@]1(C[C@H]2C(=O)N[C@]4(C(=O)NS(=O)(=O)C5(C)CC5)C[C@H]4/C=C\CCCCC[C@H](NC(=O)OCC(C)(C)C)C(=O)N2C1)O3

>  <target-entity>
HCV NS3/4A protease genotype 1b (Hepatitis C virus genotype 1b)

>  <result>
0.013 nM

$$$$
